# Study target: human mAChR M1 (Homo sapiens)
# Construct: host or cells: CHO-K1
# Sequence (P11229 whole entry): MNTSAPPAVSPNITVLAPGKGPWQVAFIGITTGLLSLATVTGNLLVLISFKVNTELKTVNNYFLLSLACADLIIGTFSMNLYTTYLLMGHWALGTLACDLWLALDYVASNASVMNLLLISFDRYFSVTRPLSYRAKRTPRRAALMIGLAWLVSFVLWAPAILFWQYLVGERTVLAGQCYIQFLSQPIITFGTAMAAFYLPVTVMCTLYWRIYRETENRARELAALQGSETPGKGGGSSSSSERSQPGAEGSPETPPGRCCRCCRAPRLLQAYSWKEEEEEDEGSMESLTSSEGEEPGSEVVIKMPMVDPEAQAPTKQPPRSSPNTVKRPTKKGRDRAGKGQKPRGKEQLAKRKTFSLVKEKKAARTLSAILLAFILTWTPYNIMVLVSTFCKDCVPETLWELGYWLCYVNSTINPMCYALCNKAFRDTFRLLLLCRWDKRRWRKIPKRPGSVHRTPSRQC
# Measurement notes: mAChR M1 cell-based functional assay (calcium mobilization, Fluo-4, FDSS)
# Measurement context: CHO-K1 cells stably expressing hM1; EC20 acetylcholine response; read-out: Human M1 Emax
Class condition met: Emax at least 70%. Class condition not met: Emax below 70%.

Query string: Please check the record Cn1ccc(-c2ccc(Cc3cc(C(=O)NCC4CCOCC4)nc4c3ccn4C)cn2)n1 [Compound 150] and state if its Emax is at or above 70%.
Result string: condition met

----------
# Emax annotations
# Study target: human mAChR M1 (Homo sapiens)
# Construct: host or cells: CHO-K1
# Measurement notes: mAChR M1 cell-based functional assay (calcium mobilization, Fluo-4, FDSS)
# Measurement context: CHO-K1 cells stably expressing hM1; EC20 acetylcholine response; read-out: Human M1 Emax
Could you give the number and then its unit, please?

* Cn1cc(-c2ccc(Cc3cc(C(=O)N[C@H]4CCCC[C@@H]4O)nc4c3ccn4C)cn2)cn1 [Compound 46] | 73.9%
* Cc1nc(-c2ccc(Cc3cc(C(=O)NC4CC5(COC5)C4)nc4c3ccn4C)cc2)co1 [Compound 54] | 84.6%

Now let's try a different one.
Query string: // fetch Emax; item: Cc1nc(-c2ccc(Cc3cc(C(=O)N[C@H]4CCCC[C@@H]4O)nc4c3ccn4C)cc2)co1 [Compound 52] ; system: human mAChR M1 (Homo sapiens)
Result string: 80.1%

Reference source: patent US10899759B2
